Compiled notes: published IC50 values involving 72 kDa type IV collagenase (Homo sapiens).
readout: IC50 (µM)

compound="Cc1ccc(Oc2ccc(S(=O)(=O)CCC(O)C(=O)NO)cc2)cc1C (racemic)" result=0.12
compound=Cc1ccc(-c2nc(-c3ccc(S(=O)(=O)NCC(=O)O)cc3)no2)cc1 result=0.0516
compound="CCC(CC)C(=O)N1CCC(CC(CS(=O)(=O)c2ccc(OCc3cc(C)nc4ccccc34)cc2)N(O)C=O)CC1 (stereo not drawn)" result=3.2
compound="Cc1cncc(C(CS(=O)(=O)c2ccc(OCc3cc(C)nc4ccc(F)cc34)cc2)N(O)C=O)c1 (stereo not drawn)" result=18
compound=Cc1ccc(C#Cc2ccc(S(=O)(=O)N[C@@H](Cc3c[nH]c4ccc(F)cc34)C(=O)O)s2)cc1 result=0.0908
compound=CCc1ccc(-c2nc(-c3ccc(S(=O)(=O)N[C@H](C)C(=O)O)s3)no2)cc1 result=0.0029

P. COCC(NS(=O)(=O)c1ccc(-c2ccc(C#Cc3ccc4cc(OC)ccc4c3)cc2)cc1)C(=O)O (stereo not drawn)
Q. CC1c2c(N)cc(C(C)(C)C)c(O)c2C(=O)C2=C(O)C3(O)C(=O)C(C(N)=O)=C(O)C(N(C)C)C3C(O)C21 (stereo not drawn)
R. Cc1cccc(C(CS(=O)(=O)c2ccc(OCc3cc(C)nc4ccc(F)cc34)cc2)N(O)C=O)n1 (stereo not drawn)
// query Arrange these 3 compounds in increasing order of IC50. Please express your ranking as an ordered list of the labels.
// result P, R, Q
(P: 0.0506 µM, R: 95 µM, Q: 1470 µM)

1. CC(C)[C@@H](NS(=O)(=O)c1ccc(C#Cc2ccc3ccccc3c2)cc1)C(=O)O
2. O=C(Nc1ccc(-c2ccc(S(=O)(=O)N[C@H](Cc3ccccc3)C(=O)O)cc2)cc1)c1ccc2c(c1)OCO2
3. O=C(N[C@@H](CS(=O)(=O)c1ccc(Oc2ccccc2)cc1)C(=O)NO)c1ccnc2ccccc12
// query Hello, I need these entries ordered by IC50, highest reading first. Thanks! Please express your ranking as an ordered list of the labels.
// result 2, 1, 3
(2: 0.197 µM, 1: 0.11 µM, 3: 0.0003 µM)
